system: 885724-159-R-J1-PDC complex spheroid viability; assay: Anticancer human tumor 885724-159-R-J1-PDC patient-derived pancreatic adenocarcinoma cell line growth inhibition [GQUAD]; conditions: second compound 0.0316 µM; first compound 0.000999 µM; active compounds read low;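 also: spheroids exposed to agents for seven days before readout; percent of vehicle control viability where 100% = DMSO wells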
measurement-name: viability, T/C

>  <compound>
CCc1c2c(nc3ccc(O)cc13)-c1cc3c(c(=O)n1C2)COC(=O)[C@]3(O)CC + CN(C)c1ccc(Nc2c3ccc(NC(=O)CCN4CCCC4)cc3nc3cc(NC(=O)CCN4CCCC4)ccc23)cc1

>  <result>
93.4%

$$$$
>  <compound>
CC[C@@]1(O)C(=O)OCc2c1cc1n(c2=O)Cc2cc3c(CN(C)C)c(O)ccc3nc2-1 + Cc1[nH]c2ccc(F)cc2c1-c1nc2c3cccnc3c3ncccc3c2[nH]1

>  <result>
90.3%

$$$$
>  <compound>
CCc1c2c(nc3ccc(O)cc13)-c1cc3c(c(=O)n1C2)COC(=O)[C@]3(O)CC + Cc1[nH]c2ccc(F)cc2c1-c1nc2c3cccnc3c3ncccc3c2[nH]1

>  <result>
96.4%

$$$$
>  <compound>
CC[C@@]1(O)C(=O)OCc2c1cc1n(c2=O)Cc2cc3c(CN(C)C)c(O)ccc3nc2-1 + CN(C)c1ccc(Nc2c3ccc(NC(=O)CCN4CCCC4)cc3nc3cc(NC(=O)CCN4CCCC4)ccc23)cc1

>  <result>
100%

$$$$

### Prompt Please report the recorded viability, T/C for Cc1[nH]c2ccccc2c1CCNCc1ccc(/C=C/C(=O)NO)cc1 + Cc1cnc(CNC(=O)c2c(=O)c3ccc(N4CCCN(C)CC4)nc3n3c2sc2ccccc23)cn1 .
### Response 111%
